assay: Oral bioavailability in Wistar rat at 20 mg/kg by LC-MS/MS analysis; assay type: ADME, organism-based; details: in vivo
testReadout: bioavailability (%)
Write down the numeric answer in % and omit the unit.

*Q* Let me know recorded bioavailability for C=C1CC[C@@H]2[C@](C)(CO)[C@H](O)CC[C@@]2(C)[C@@H]1C/C=C1/C(=O)OC[C@H]1O [ANDROGRAPHOLIDE] , thanks.
*A* 61.2

Reference source: ChEMBL document CHEMBL6078639
